pIC50 listing for selected compounds.
Biological target: Indoleamine 2,3-dioxygenase (Homo sapiens, UniProt P14902)
Construct: endogenous in cells
Sequence (P14902 whole entry): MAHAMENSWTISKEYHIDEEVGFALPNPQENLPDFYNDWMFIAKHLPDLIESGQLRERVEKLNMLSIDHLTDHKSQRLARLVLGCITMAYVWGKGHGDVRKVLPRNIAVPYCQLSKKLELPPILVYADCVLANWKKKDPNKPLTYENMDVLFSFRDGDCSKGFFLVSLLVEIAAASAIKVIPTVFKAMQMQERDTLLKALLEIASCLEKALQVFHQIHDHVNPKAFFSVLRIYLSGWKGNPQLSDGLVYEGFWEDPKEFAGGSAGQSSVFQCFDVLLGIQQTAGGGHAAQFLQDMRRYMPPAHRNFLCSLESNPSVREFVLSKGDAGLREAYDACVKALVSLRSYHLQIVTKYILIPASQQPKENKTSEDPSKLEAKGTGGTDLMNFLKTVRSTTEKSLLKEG
Assay: SKOV-3 cellular Indoleamine 2,3-dioxygenase assay
Conditions: SKOV-3 cells, 50 ng/ml Interferon gamma, 100 μM L-Tryptophan, 24 hours, N-Formylkynurenin fluorescence detection; read-out: cell based activity
pIC50: −log10 of the molar value.

> print(dat)
                                   compound                          target.or.system  measure.name  observed.result
1  O=C(NCCOc1nonc1C(=NO)Nc1ccc(F)c(Cl)c1)c1cnccn1  Indoleamine 2,3-dioxygenase (Homo sapiens, UniProt P14902)         pIC50     6.00 to 7.00
2  CC(CNS(N)(=O)=O)Oc1nonc1C(=NO)Nc1ccc(F)c(Cl)c1 (single isomer, unassigned) [Example 16]  Indoleamine 2,3-dioxygenase (Homo sapiens, UniProt P14902)         pIC50           < 6.00
3  ON=C(Nc1ccc(F)c(Cl)c1)c1nonc1OCCN1CCOCC1  Indoleamine 2,3-dioxygenase (Homo sapiens, UniProt P14902)         pIC50     6.00 to 7.00

What pIC50 appears in the records for this compound with Indoleamine 2,3-dioxygenase (Homo sapiens, UniProt P14902)? NS(=O)(=O)NCCSc1nonc1C(=NO)Nc1ccc(F)c(Cl)c1
> 7.00

What pIC50 appears in the records for this compound with Indoleamine 2,3-dioxygenase (Homo sapiens, UniProt P14902)? CS(=O)(=O)CCOc1nonc1C(=NO)Nc1ccc(F)c(Cl)c1
< 6.00

What pIC50 appears in the records for this compound with Indoleamine 2,3-dioxygenase (Homo sapiens, UniProt P14902)? NS(=O)(=O)CC(=O)NCCSc1nonc1C(=NO)Nc1cccc(CF)c1
> 7.00

What pIC50 appears in the records for this compound with Indoleamine 2,3-dioxygenase (Homo sapiens, UniProt P14902)? O=C(O)c1cccc(C(=O)NCCOc2nonc2C(=NO)Nc2ccc(F)c(Cl)c2)c1
< 6.00

What pIC50 appears in the records for this compound with Indoleamine 2,3-dioxygenase (Homo sapiens, UniProt P14902)? CC(CN)Oc1nonc1C(=NO)Nc1ccc(F)c(Cl)c1 (stereo not drawn)
6.00 to 7.00

What pIC50 appears in the records for this compound with Indoleamine 2,3-dioxygenase (Homo sapiens, UniProt P14902)? CC(CNS(N)(=O)=O)Oc1nonc1C(=NO)Nc1ccc(F)c(Cl)c1 (single isomer, unassigned) [16/1]
< 6.00

Values compiled from patent US11078168B2.
